- System: SW-620
- assay: NCI tumour cell line growth inhibition, 48 h
Active and inactive are the calls of the source. Cut-off read from the data, not from the text of the source: active = GI50 up to about 1.1 µM and inactive = higher.
Possible outcomes: 1.0 for active, 0.0 for inactive

INSERT INTO assay_data (compound, assigned_class) VALUES
  ('COC1=C(OC)C(=O)C(Cc2c(-c3ccccc3)nc3sc(Cl)cn23)=C(C)C1=O', 0.0),
  ('Cc1cc(C)nc(NS(=O)(=O)c2ccc(Nc3c4ccccc4nc4c(C(=O)NCCN(C)C)ccc(Cl)c34)cc2)n1', 1.0),
  ('COC(=O)/C(C#N)=C1\CCC(Nc2cccc(C(F)(F)F)c2)N1C (stereo not given)', 0.0),
  ('CCOC(=O)Nc1ccc(S(=O)(=O)I)cc1.CCOC(=O)Nc1ccc(S(=O)(=O)I)cc1.CN(C=O)C1=C(N(C)C=O)C(N(C)C=O)=C(N(C)C=O)C(=O)C1=O', 0.0),
  ('CNC(=O)CCC(NC(=O)OC(C)(C)C)C(=O)NC(Cc1ccc(NC(=O)CCCCC(C)=O)cc1)C(=O)NCC(=O)NC (stereo not given)', 0.0),
  ('O=C1CC(c2c[nH]c3ccccc23)C(=O)N1 (stereo not given)', 0.0),
  ('CC(C)NC(=O)N(Nc1ccccc1)C(C)(C)C', 0.0),
  ('C/C(CC(O)(C(F)(F)F)C(F)(F)F)=N\NC(N)=O', 0.0),
  ('CC(=O)NNc1nc(C)c(C(/C=C/c2ccc3c(c2)OCO3)=N/Nc2ccccc2)s1', 0.0),
  ('Cc1nc(Nc2ccc(F)cc2)c2sc(=S)n(-c3ccc(F)cc3)c2n1', 0.0),
  ('CSc1c([S+](C)[O-])[nH]c2cc(Br)cc(Br)c12 (stereo not given)', 0.0),
  ('O=S(=O)(O)Nc1ccc(-c2nc3ccccc3s2)cc1Cl', 0.0),
  ('COc1cccc(C2c3cc4c(cc3OC(N3CCCCC3)C2C)OCO4)c1O (stereo not given)', 0.0),
  ('C[N+]1(C(CO)Cc2c[nH]c3ccccc23)Cc2ccccc2C1 (stereo not given)', 0.0),
  ('CC1=NN(c2nc(N)nc(/C(C#N)=C\C3COc4ccccc4C3=O)n2)C(C)(C)C1 (stereo not given)', 0.0),
  ('O=c1cc(-c2ccccc2)nc2[nH]ccn12', 0.0),
  ('FC(F)(F)C1(Cl)C(Cl)(c2ccccc2)C1(Cl)c1ccccc1 (stereo not given)', 0.0),
  ('O=c1c2c3c(sc2nc2n1N=C(c1ccc([N+](=O)[O-])cc1)CS2)CCCC3', 0.0),
  ('Cc1cn([C@H]2[C@@H](CO)C[C@H]2O)c(=O)[nH]c1=O', 0.0),
  ('CC(=O)O/C=C(/C=C/OC(C)=O)C(C/C=C(\C)C#CC=C(C)C)OC(C)=O (stereo not given)', 0.0);

###

- System: EKVX
- assay: NCI tumour cell line growth inhibition, 48 h
Active and inactive are the calls of the source. Rule as the data show it: active = GI50 up to about 1.1 µM and inactive = higher.
Possible outcomes: active, inactive

INSERT INTO assay_data (molecule, assigned_class) VALUES
  ('COc1ccccc1CC(C)N (stereo not given)', 'inactive'),
  ('COc1ccc(CC2NCCc3c2[nH]c2ccccc32)cc1 (stereo not given)', 'inactive'),
  ('CC(=O)CCC1(c2ccccc2)OC(=O)C(C#N)=C1c1ccccc1 (stereo not given)', 'inactive'),
  ('COCC1C(=O)c2cc3c(cc2C12C=CC1(C=C2)OCCO1)OCO3 (stereo not given)', 'inactive'),
  ('COC(=O)NNc1c([N+](=O)[O-])cnn(-c2ccccc2)c1=O', 'inactive'),
  ('COC(=O)C1Cc2cc3c(cc2C1)CCC3', 'inactive'),
  ('Cc1c2c(n3c(nc4ccccc43)c1C#N)SCC2', 'inactive'),
  ('O=C(CC1=Nc2nnc(CCCCCCCc3nnc4n3C(=O)C(CC(=O)c3ccc5ccccc5c3)=N4)n2C1=O)c1ccc2ccccc2c1', 'inactive'),
  ('CC1CC(C(=O)OC2OC(COC3OC(CO)C(OC4OC(C)C(O)C(O)C4O)C(O)C3O)C(O)C(O)C2O)C2CCC3(C)C(=CCC4(C)C3CCC3C(C)(CO)C(O)C(O)CC34C)C2C1C (stereo not given)', 'inactive'),
  ('CN(C)Cc1cc(C(=O)O)cc(CN(C)C)c1O', 'inactive'),
  ('CCc1[nH]c(=O)nc(N)c1-c1ccc(N2CCCCC2)c([N+](=O)[O-])c1', 'inactive'),
  ('COc1cc2cc(C(=O)N3CC(CCl)c4c3cc(NCCN)c3ccccc43)[nH]c2c(OC)c1OC (stereo not given)', 'active'),
  ('Cc1ccc(S(=O)(=O)N/N=C2\C(=O)Nc3cc(O)c(C(=O)O)cc32)cc1', 'inactive'),
  ('COC(=O)C1C2C=CC(C2)C1(C(=O)OC)[S+]([O-])CC12CCC(CC1O)C2(C)C (stereo not given)', 'inactive'),
  ('Brc1nc2c3ccccc3ncn2c1Br', 'inactive'),
  ('CC(C)NC(=O)N(Nc1ccccc1)C(C)(C)C', 'inactive'),
  ('CCOC(=O)NNC(=O)NCCNC(=O)NNC(=O)OCC', 'inactive'),
  ('CC12NC(=C(C#N)C#N)C(C#N)=C3NC(N)=C(C#N)C(=C31)Oc1ccccc12 (stereo not given)', 'inactive'),
  ('CC(=O)O[C@H]1C(=O)[C@]2(C)[C@@H](OC(=O)OCCC(O)CO)C[C@H]3OC[C@@]3(OC(C)=O)[C@H]2[C@H](OC(=O)c2ccccc2)[C@]2(O)C[C@H](OC(=O)[C@H](O)[C@@H](NC(=O)c3ccccc3)c3ccccc3)C(C)=C1C2(C)C (stereo not given in full)', 'active'),
  ('CCSc1nnc(CSc2nc(-c3ccccc3)c(-c3ccccc3)[nH]2)n1-c1ccccc1', 'inactive');
